Test: Fraction unbound in Wistar rat plasma at 10 mg/kg, sc by HPLC-MS/MS analysis
Type: ADME, organism-based
Parameters: dose 10 mg/kg, route subcutaneous
readout-name: fraction unbound
Lab note: record the figure alone, no unit after it.

Just so you know, measured fraction unbound for Clc1ccc2c(c1)N=C(N1CCNCC1)c1ccccc1N2 [N-DESMETHYLCLOZAPINE] came out at 0.11

Kindly consider the entry below.
Just so you know, measured fraction unbound for CN1CCN(C2=Nc3cc(Cl)ccc3Nc3ccccc32)CC1 [CLOZAPINE] came out at 0.061

---

Experiment: Fraction unbound in Wistar rat plasma at […], sc by HPLC-MS/MS analysis
Format: ADME, organism-based
Parameters: dose 1.6 mg/kg, route subcutaneous
readout-name: fraction unbound

Just so you know, measured fraction unbound for CN(C)CCC[C@@]1(c2ccc(F)cc2)OCc2cc(C#N)ccc21 [ESCITALOPRAM] came out at 0.5

---

Test: Ratio of unbound AUC in extracellular fluid to unbound AUC in plasma of Wistar rat at 3 mg/kg, sc by HPLC-MS/MS analysis
Assay type: ADME, organism-based
Parameters: dose 3 mg/kg, route subcutaneous
Details: read-out: Ratio AUC
readout-name: Kp uu
Lab note: record the figure alone, no unit after it.

Just so you know, measured Kp uu for Cc1nc2n(c(=O)c1CCN1CCC(c3noc4cc(F)ccc34)CC1)CCCC2 [RISPERIDONE] came out at 0.15

---

Test: Unbound Tmax in Wistar rat plasma at 3 mg/kg, sc by HPLC-MS/MS analysis
Assay type: ADME, organism-based
Design: dose 3 mg/kg, route subcutaneous
Conditions: read-out: fTmax (converted)
readout-name: Tmax (min)
Please give a number only; it is taken to be in min.

Just so you know, measured Tmax for "Cc1nc2n(c(=O)c1CCN1CCC(c3noc4cc(F)ccc34)CC1)CCCC2" came out at 53

---

Overview of reported Kp uu across a group of molecules:
Assay: Ratio of unbound AUC in extracellular fluid to unbound AUC in plasma of Wistar rat at 10 mg/kg, sc by HPLC-MS/MS analysis
Type: ADME, organism-based
Set-up: dose 10 mg/kg, route subcutaneous
Details: read-out: Ratio AUC
Lab note: record the figure alone, no unit after it.

Just so you know, measured Kp uu for Clc1ccc2c(c1)N=C(N1CCNCC1)c1ccccc1N2 [N-DESMETHYLCLOZAPINE] came out at 0.03

Others:
Just so you know, measured Kp uu for CN1CCN(C2=Nc3cc(Cl)ccc3Nc3ccccc32)CC1 [CLOZAPINE] came out at 0.15

---

Assay: AUC (0 to infinity) in Wistar rat extracellular fluid at 3 mg/kg, sc by HPLC-MS/MS analysis
Format: ADME, organism-based
Design: time infinity, dose 3 mg/kg, route subcutaneous
readout-name: AUC(0-inf) (µM·h)
Please give a number only; it is taken to be in µM·h.

Just so you know, measured AUC(0-inf) for "Cc1nc2n(c(=O)c1CCN1CCC(c3noc4cc(F)ccc34)CC1)CCCC2" came out at 0.0591

---

Assay: AUC (0 to infinity) in rat
Format: ADME, organism-based
Design: time infinity
Settings: plasma
readout-name: AUC(0-inf) (µM·h)
Please give a number only; it is taken to be in µM·h.

Just so you know, measured AUC(0-inf) for "CN1CCN(C2=Nc3cc(Cl)ccc3Nc3ccccc32)CC1" came out at 5.39

---

Assay: Ratio of steady state drug level in extracellular fluid to unbound drug level in plasma of Wistar rat at […], sc by HPLC-MS/MS analysis
Type: ADME, organism-based
Parameters: dose 1.6 mg/kg, route subcutaneous
readout-name: Kp uu
Lab note: record the figure alone, no unit after it.

Just so you know, measured Kp uu for "CN(C)CCC[C@@]1(c2ccc(F)cc2)OCc2cc(C#N)ccc21" came out at 1.06

---

Overview of reported AUC(0-inf) across a group of molecules:
Experiment: AUC (0 to infinity) in Wistar rat extracellular fluid at 10 mg/kg, sc by HPLC-MS/MS analysis
Format: ADME, organism-based
Design: time infinity, dose 10 mg/kg, route subcutaneous
Please give a number only; it is taken to be in µM·h.

Just so you know, measured AUC(0-inf) for "Clc1ccc2c(c1)N=C(N1CCNCC1)c1ccccc1N2" came out at 0.0134

Others:
Just so you know, measured AUC(0-inf) for "CN1CCN(C2=Nc3cc(Cl)ccc3Nc3ccccc32)CC1" came out at 0.0443
